test system: L1210 leukemia ip in BDF1 mice, survival T/C; experiment: NCI In Vivo Anticancer Drug Screen. Data for tumor model L1210 Leukemia (intraperitoneal) in B6D2F1 (BDF1) mice; settings: endpoint: mean survival time; dose: 200.0 mg/kg/injection; schedule: Q01DX001 (ip); vehicle: saline; higher = longer survival
Toxic doses and inconclusive results are not listed.
Parameter measured: T/C

Please review the following examples before continuing.
Nc1nc(N)c2c(n1)[n+]([O-])c1ccccc1[n+]2[O-]	103 % of control
CCCCS(=O)(=O)CCCCCCl	104 % of control
NCCc1ccc(O)c(O)c1	99 % of control

Q. Endpoint output: T/C of "CS(=O)(=O)c1nc(N)nc2nc[nH]c12" . Value?
A. 117 % of control

Q. // query T/C value for entry "O=C(CCCC(=O)NNC(=O)Nc1ccc(N=Nc2ccccc2)cc1)NNC(=O)Nc1ccc(N=Nc2ccccc2)cc1"
A. 96 % of control

Q. Could you share which T/C value was measured for "CCCCCCCC[Si](C)(C)C" ?
A. 97 % of control

Q. Name the reported T/C value associated with the compound "O=c1[nH]cnc2nc(Br)[nH]c12"
A. 95 % of control
